# Test system: K4 kissing-loop RNA reporter;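 note: bound reporter read as fluorescence of individual clusters on recovered sequencing chips by microscopy, with normalized cluster intensities fitted with a binding model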
# measurement protocol: apparent KD of K4 kissing-loop reporter; higher = weaker reporter binding
# measurement setup: Eterna round: R107; input ligand: none
Kind request: treat 200 nM as inclusive, so apparent KD of K4 kissing-loop reporter at 200 nM or higher is MET, anything lower is NOT MET.

Completed entries (count: 6):
[
  {
    "ordered residues": "UUUAUAUAGUCGGCCGCCACUGAUUUUUUUAUAUGUUUAUGUUUAUACGAGUGAUGUUCGAUAUACAGGACCGGGACUUUGGUUA [JR_SSTryptoB_Sub019]",
    "category label": "NOT MET"
  },
  {
    "ordered residues": "AUGCGACGUGCGGCCGCCACUCGGAUGCGAGUGAUGUUCGCGGGACGGACGCAAGUCCGUCAUUCGAGGACCGGGCAUCGGUGUA [#2 Same State - Tryptophan B Attempt #2 (HarryS)]",
    "category label": "MET"
  },
  {
    "ordered residues": "AAAUAUAGUGAUGUUAUAUAUAUAUGUGAUACCAGAGAAAGAAAACUCCCUUGGCAGCACGAGAGAGAAUUUUUUUUUUAUAUAU [AstrosSSTheA#1]",
    "category label": "MET"
  },
  {
    "ordered residues": "GUGUGUGAAAACACGCACUUAUAUCCUAGGCAGGAUAUGCGGAAACGCAGAAGGGCCACCGGCGAGAAAAUCCAGUGAUGUUGGA [Ex FMN A 6]",
    "category label": "MET"
  },
  {
    "ordered residues": "AGCUUGGGUUCGGCCGCCACUCCACCCUUAGAAGUGAUGUUUCUCAUGCAUACGCGUCGUCAGAUGAGGACCGGGAAUGUAGUUG [theeternabot_exclusion_KL_Trp_B_24]",
    "category label": "MET"
  },
  {
    "ordered residues": "UGACUGGACUGAAGGAGCGGGCGAGACAAAGUCUCGAACUGCUAGUGAUGUUAGCAAAUAACCCAGGUAGGUCGCAGUCUAGUCU",
    "category label": "NOT MET"
  }
]

Threshold query (apparent KD of K4 kissing-loop reporter >= 200 nM) on "GCCGUAGAUUGAAGGAGCGGACUUAUAGGUCUUAAGGAGUGAUGUUCCUGACACUCGGCGGUCCAGGUAGGUCGCAAUCUACGGC" MET

Threshold query (apparent KD of K4 kissing-loop reporter >= 200 nM) on UUUAAAUAUAGUGAUGUUAUAUAACAAUGACGAGGACCGGUACGGCCGCCACUCGAGAGAGAUAAUGGUCGUUCGAAUCGAACGC [AstrosSSTryA#6] MET

Threshold query (apparent KD of K4 kissing-loop reporter >= 200 nM) on AUGAGGAGCAGUGAUCCUAUUCCAUGGGAAGGAGCGUAGGAUACUACAGGUAGGUCGCCCAGUGAUGUUGGGCGCGUGCUCUUGG [Zaqua] NOT MET

Threshold query (apparent KD of K4 kissing-loop reporter >= 200 nM) on GUGCGGCUAGUGAUGUUGGUUGCGUGGGAAGGAGCGCAGAAACAUGCAGGUAGGUCGCCCACAUCUCUGAUAAAAGAUUAAUUCA [Riares] MET

Threshold query (apparent KD of K4 kissing-loop reporter >= 200 nM) on UACGCUUACUUGCGCGGUCCGAUUAACGAUACCAGCGAAGAAGCCCGCCCUUGGCAGCGUUAUAGAGUGAUGUUCACGGAGAUUA [theeternabot_sameState_KL_Theo_A_12] MET

Threshold query (apparent KD of K4 kissing-loop reporter >= 200 nM) on UCUGGUAUAUCUGAUACCAGAGUAUAGUAUCAAUUGAAUAUGGAGUGAUGUUCCAUACAACUCCCUUGGCAGCAGAUCUUCCUCU [Same State Theophylline B GF 23] NOT MET

meta.source: the supplement of paper PMC9170038
